molecular target: UniProt P61823; test: Non-competitive inhibition of bovine pancreatic RNase A using 2',3'-cCMP as substrate by Lineweaver-Burk plot analysis

# query-smiles, Ki, µM
records = [
    ("O=C(O)C1CCN(C(=O)c2cccc(C(=O)N3CCC(C(=O)O)CC3)c2)CC1", 617),
]

----------
Molecular target: Ribonuclease pancreatic (Bos taurus)
Sequence (P61823 whole entry): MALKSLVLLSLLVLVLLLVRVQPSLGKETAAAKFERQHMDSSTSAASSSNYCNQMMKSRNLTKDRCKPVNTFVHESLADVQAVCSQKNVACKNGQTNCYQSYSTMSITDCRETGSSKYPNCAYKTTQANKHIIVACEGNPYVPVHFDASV
Test: Competitive inhibition of bovine pancreatic RNase A using 2',3'-cCMP as substrate by Lineweaver-Burk plot analysis
pKi: −log10 of the molar value.
Cut-off 4 on pKi, inclusive. At or above means 1 (yes); below means 0 (no).

# query-smiles, discrete-label
measured = [
    ("O=C(O)c1cc(-n2cc(C(=O)O)nn2)cc(-n2cc(C(=O)O)nn2)c1", "1 (yes)"),
    ("O=S(=O)(O)Cc1cn(-c2cccc(-n3cc(CS(=O)(=O)O)nn3)c2)nn1", "1 (yes)"),
    ("O=C(O)c1cc(-n2cc(CS(=O)(=O)O)nn2)cc(-n2cc(CS(=O)(=O)O)nn2)c1", "1 (yes)"),
    ("O=C(O)c1cc(-n2cc(CO)nn2)cc(-n2cc(CO)nn2)c1", "1 (yes)"),
    ("O=C(O)c1cn(-c2cccc(-n3cc(C(=O)O)nn3)c2)nn1", "1 (yes)"),
    ("O=C(O)c1cc(C(=O)N2CCC(C(=O)O)CC2)cc(C(=O)N2CCC(C(=O)O)CC2)c1", "0 (no)"),
]
